Tested on: Chordin-like protein 2 (CHRDL2)
Assay: compounds binding chordin-like 2 – biochemical, small-molecule microarray, 635 nm fluorescence, primary screen (AID 1126);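 also: printed compound slides probed with Chrdl2 protein at 4 µg/mL for 1 h at 4 C; score merges 667 nm emission intensity with signal to noise over three replicate slides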
Details: fluorescence 635 nm, higher = more signal
OBSERVABLE: composite z-score
Answer as a number with no unit attached.

INPUT: Using known records, supply composite z-score for COC(=O)c1cccc([C@H]2OC(=CC(=O)OC(C)C)C[C@@H](c3cccc(C(=O)OC)c3)O2)c1
OUTPUT: -0.338

INPUT: Using known records, supply composite z-score for C=CC[C@@]1(C(=O)N(C)C)N=C(c2ccc(OCCCO)cc2)O[C@@H]1c1ccccc1CN=[N+]=[N-]
OUTPUT: -0.201

INPUT: Using known records, supply composite z-score for Cc1ccc(N2C(=O)c3ccccc3[C@](C)(C(=O)NCCCN(C)C)[C@@H]2c2ccc(CO)cc2)nc1
OUTPUT: -1.19
